Listed below: TGI values for each entry.
System: DU-145 prostate
Assay: NCI tumour cell line growth inhibition, 48 h

| Compound | Assay target | TGI |
| --- | --- | --- |
| S=c1nc(/C=C/c2ccc(Cl)c(Cl)c2)[nH][nH]1 | DU-145 prostate | > 100 µM |

Please look up its TGI: CCN1C(=O)N(CC)C2C1NN=c1s/c(=C\c3ccc([N+](=O)[O-])cc3)c(=O)n12 (stereo unspecified)
> 100 µM

Cool, now CC1C2CC(CC2=O)C1(C)C (stereo unspecified)
> 100 µM

And the next one, CC(=O)/C(=C\n1c(=S)[nH]c2ccc([N+](=O)[O-])cc21)C(=O)Nc1ccccc1C ?
> 100 µM

Same question, O=C(CCl)Nc1ccc(-c2nc3ccccc3s2)cc1 this time
38 µM

Now this one: COc1cc(-c2c(C(C)=O)c(-c3ccccc3)n(C3OC(COC(C)=O)C(OC(C)=O)C(OC(C)=O)C3OC(C)=O)c(=S)c2C#N)ccc1O (stereo unspecified)
> 100 µM

----------
Test system: HS 578T breast
Test: NCI tumour cell line growth inhibition, 48 h
Reported metric: TGI

// worked examples, TGI included
| Molecule | TGI |
| --- | --- |
| CCCCC[C@H]1CC=CC(=O)O1 | 50.6 µM |
| Nc1nccc(C#Cc2cncnc2Nc2ccc(OCc3cccc(F)c3)c(Cl)c2)n1 | 20.5 µM |
| CC(C)=CCc1c(O)c(CC=C(C)C)c2oc3c(c(=O)c2c1O)C(C=C(C)C)Oc1cc(O)ccc1-3 (centres undefined) | 43.8 µM |
| COC12c3ccccc3-c3ccccc3C1[C@@H](C(=O)O)[C@H]2C(=O)O (some centres undefined) | > 10 µM |
| CC1=NN(c2ccccc2Cl)C2(C1)SCC(=O)N2c1nc2ccccc2s1 (centres undefined) | > 100 µM |

# get_value(readout='TGI', item= CCOC(=O)C(NC(=O)Nc1ccccc1F)(OC)C(F)(F)F (centres undefined) )
> 100 µM

----------
Test system: MCF7 breast
Assay: NCI tumour cell line growth inhibition, 48 h
Entries and their measured TGI follow.

Tell me the measured TGI of CCN(CC)c1ccc(/C=C/C2=[N+](C)c3ccccc3C2(C)C)cc1 , please.
18.5 µM

----------
System: OVCAR-4 ovarian
Assay: NCI tumour cell line growth inhibition, 48 h
The compounds listed here are annotated with their TGI.
Express your answer in µM, writing the number without its unit.

| Smiles code | Assay target | TGI [µM] |
| --- | --- | --- |
| Cc1cc(N(CCC#N)CCC#N)ccc1N=Nc1ccc([N+](=O)[O-])cc1 | OVCAR-4 ovarian | 44.1 |
| Cc1ccc2c(c1)C(=O)c1ccc(C)nc1C2=O | OVCAR-4 ovarian | 83.7 |

Turning to the following compound.
What is its TGI for OVCAR-4 ovarian? Entry: COc1cccc2c(=O)c3c(O)c4cc(N(C)C)ccc4c(OC(C)=O)c3oc12
32

----------
Test system: TK-10 renal
Test: NCI tumour cell line growth inhibition, 48 h
Reported GI50 values follow for various compounds

Please review the following examples before continuing.
| Compound | GI50 |
| --- | --- |
| C[CH2][Sn]([CH2]C)([O]C(=O)c1cc(OC)c(OC)c(OC)c1)[O][Sn]([CH2]C)([CH2]C)[O]C(=O)c1cc(OC)c(OC)c(OC)c1 | 18.9 µM |
| Cn1cc(-c2ccc3c(c2)ncn3-c2ccc(CC(=O)Nc3cc(C(C)(C)C)on3)cc2)cn1 | 0.671 µM |
| Oc1ccc(-c2nc(-c3ccc(F)cc3)c(-c3ccncc3)[nH]2)cc1 | 7.89 µM |

Name the reported GI50 value associated with the compound Cn1cccc1C1CC(=O)N(CCC[Se]C#N)C1=O (stereo unspecified)
1.79 µM

Query CCOC(=O)/C(=C/c1c(-c2ccccc2)[nH]c2ccccc12)C(=O)c1ccc(Cl)cc1 next
28.2 µM

Param item: O=C1/C(=C\c2ccccc2)CN(C(=O)c2ccccc2F)C/C1=C\c1ccccc1
2.33 µM

Try the compound Cc1ccc2c(c1)/C(=N\N=C/c1cn(C(C)C)c3ccccc13)C(=O)N2
15 µM

Please do the same for O=C(/C=C/c1cccnc1)/C=C/c1cccnc1 as well.
3.11 µM

Also C/C=C(\C)C(=O)O[C@@H]1C=CC(=O)O[C@H]1COC(=O)[C@H](C)O , if possible.
13 µM

Field entry: N=C(N)c1ccc(-c2ccc(-c3ccccc3)o2)cc1
1.89 µM

Do the same for C#CCSc1nnnn1-c1ccc(Br)c(C)c1 please
35.4 µM

----------
Test system: SK-MEL-5 melanoma
Experiment: NCI tumour cell line growth inhibition, 48 h
Reported metric: GI50

Worked examples, 10 compounds total:
| Compound | Assay target | Measured |
| --- | --- | --- |
| O=[N+]([O-])c1ccc([I+]c2ccccc2)cc1 | SK-MEL-5 melanoma | 1.54 µM |
| CCCCCCCCCCCCCCCc1ccc(C(=O)C[n+]2ccccc2)cc1 | SK-MEL-5 melanoma | 1.44 µM |
| COc1cc2c(cc1OCCCN1CCN(CCCOc3cc4c(cc3OC)C(=O)C3CCC[C@H]3C=N4)CC1)N=C[C@@H]1CCCC1C2=O (some centres undefined) | SK-MEL-5 melanoma | 2.2 µM |
| CC[C@]12C=CCN3CC[C@]4(C(=C(C(=O)OC)C1)Nc1ccccc14)[C@@H]32 | SK-MEL-5 melanoma | 4.87 µM |
| CCN(CC)c1ccc(/C=C/C2=[N+](C)c3ccccc3C2(C)C)cc1 | SK-MEL-5 melanoma | 0.28 µM |
| CC/C(=C(/CC)c1ccc(OP(=O)([O-])[O-])cc1)c1ccc(OP(=O)([O-])[O-])cc1.N.N.N.N.[Pt+4].[Pt+4] | SK-MEL-5 melanoma | 2.22 µM |
| Cn1cccc1C1CC(=O)N(CCC[Se]C#N)C1=O (centres undefined) | SK-MEL-5 melanoma | 1.96 µM |
| Cn1cc(-c2csc(-c3cn(C)c4ncccc34)n2)c2ccccc21 | SK-MEL-5 melanoma | 0.286 µM |
| CC1OC(OC2C(OC3CCC4(C)C(CCC5(C)C4CC=C4C6CC(C)(C)CCC6(CO)C(O)CC45C)C3(C)C)OC(C(=O)O)C(OC3OC(COC4OC(CO)C(O)C(O)C4O)C(O)C(O)C3O)C2O)C(O)C(O)C1O (centres undefined) | SK-MEL-5 melanoma | 11.5 µM |
| Cn1cc(-c2ccc3c(c2)ncn3-c2ccc(CC(=O)Nc3cc(C(C)(C)C)on3)cc2)cn1 | SK-MEL-5 melanoma | 2.5 µM |

Turning now to a further compound:
Record request: GI50 value, item COc1ccc2c(c1)C(=O)/C(=C/c1ccc(OCC(=O)c3ccc(Cl)cc3)cc1)O2
17.2 µM

----------
Test system: OVCAR-4 ovarian
Assay: NCI tumour cell line growth inhibition, 48 h; in the data active means GI50 below about 0.43 µM; inactive means the rest
Mark one answer only. Choices: active, inactive

See these solved cases before continuing.
| Compound | Discrete label |
| --- | --- |
| C/C(=N\NC(=S)Nc1ccccc1)c1ccccn1 | active |
| COc1cc2nc(-c3ccc(Cl)cc3)cc(OCCCN3CCC(O)CC3)c2cc1OC | inactive |
| O=C1c2cccnc2-c2nc(-c3ccccc3)cc3c2c1nc1ccccc13 | inactive |
| Nc1nccc(C#Cc2cncnc2Nc2ccc(OCc3cccc(F)c3)c(Cl)c2)n1 | inactive |
| CC1OC(OC2C(OC3CCC4(C)C(CCC5(C)C4CC=C4C6CC(C)(C)CCC6(CO)C(O)CC45C)C3(C)C)OC(C(=O)O)C(OC3OC(COC4OC(CO)C(O)C(O)C4O)C(O)C(O)C3O)C2O)C(O)C(O)C1O (stereo not drawn) | inactive |

I would be grateful if you could indicate the recorded call for Oc1ccc(-c2nc(-c3ccc(F)cc3)c(-c3ccncc3)[nH]2)cc1 .
inactive

Cool, now CCOC(=O)/C(=C/c1c(-c2ccccc2)[nH]c2ccccc12)C(=O)c1ccc(Cl)cc1
inactive

Now give it for C=C(CNCCc1ccc(O)cc1)[C@@H]1CC[C@]2(CO)CC[C@]3(C)[C@H](CC[C@@H]4[C@@]5(C)CCC(NCCO)C(C)(C)[C@@H]5CC[C@]43C)[C@@H]12 (stereo partly drawn) too.
inactive

----------
Test system: COLO 205 colon
Assay: NCI tumour cell line growth inhibition, 48 h
Entries annotated with measured TGI
Just the number please, in µM, no unit attached.

Some compounds with known TGI results, for comparison:
| Compound | Unit tag | Measured |
| --- | --- | --- |
| NCCCNCCCNc1nc2ccccc2c2[nH]c3ccccc3c12 | µM | 2.12 |
| O=C(c1no[n+]([O-])c1C(=O)c1csc2ccccc12)c1csc2ccccc12 | µM | 9 |
| COC(=O)C1(C)CCc2c(ccc3ccccc23)C1=O (stereo not given) | µM | 42.2 |

Please turn your attention to the following entry.
Need TGI of COC(=O)c1c(OC(C)=O)ccc2c1c1c(n2Cc2ccccc2)C(=O)c2ccccc2C1=O , thanks.
30.5
